Tested on: SYO-1 tumor spheroids, viability % test/control
Experiment: Anticancer human tumor SYO-1 cell line growth inhibition;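 note: spheroids exposed to agents for 7 days before viability read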
Settings: curve of first compound; second compound 100 µM; spheroids with HUVEC and MSC
REPORTED_PROPERTY: pIC50
pIC50 is defined as minus the log10 of a concentration measured in mol/L.

Query string: Name the recorded pIC50 of the compound listed here: CNCc1ccc(-c2cc(-c3nc(-c4ccc(S(=O)(=O)C(C)C)cc4)cnc3N)on2)cc1 + Cn1nnc2c(C(N)=O)ncn2c1=O
Result string: 7.32

Query string: Name the recorded pIC50 of the compound listed here: Cc1cc(C)c(CNC(=O)c2cc(-c3ccc(CN4CCOCC4)cc3)cc3c2cnn3C2CCCC2)c(=O)[nH]1 + Cn1nnc2c(C(N)=O)ncn2c1=O
Result string: 5.10

Query string: Name the recorded pIC50 of the compound listed here: COc1ccc([C@@H](O)c2cc(-c3ncnc4cc(N5CCOCC5)ccc34)c(F)cc2Cl)nn1 + Cn1nnc2c(C(N)=O)ncn2c1=O
Result string: 5.71

====

Tested on: SYO-1 tumor spheroids, viability % test/control
Assay: Anticancer human tumor SYO-1 cell line growth inhibition;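 note: spheroids exposed to agents for 7 days before viability read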;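 for viability, T/C: 100% = DMSO vehicle control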
Details: second compound 30 pM; first compound 0.949 µM; stronger effect = lower value; spheroids with HUVEC and MSC
Description: Multicellular complex tumor spheroid response to DNA repair inhibitors in combination with DNA-damaging drugs This study explores the anticancer activities of DNA-damaging drugs and inhibitors of DNA damage repair, both as single agents and in combinations. […] Twenty-six patient-derived or established malignant cell lines were evaluated representing sarcoma, melanoma, small cell lung cancer (SCLC), non-small cell lung cancer (NSCLC), as well as bladder, ovarian and pancreatic cancers. […]
REPORTED_PROPERTY: viability, T/C

Query string: Name the recorded viability, T/C of the compound listed here: Cn1ncnc1[C@H]1c2n[nH]c(=O)c3cc(F)cc(c23)N[C@@H]1c1ccc(F)cc1 + COc1cc2c(cc1O)CCNC21CSC2c3c(OC(C)=O)c(C)c4c(c3C(COC1=O)N1C(O)C3Cc5cc(C)c(OC)c(O)c5C(C21)N3C)OCO4
Result string: 1.14%

Query string: Name the recorded viability, T/C of the compound listed here: Cc1sc2c(c1C)C(c1ccc(Cl)cc1)=NC(CC(=O)Nc1ccc(O)cc1)c1nnc(C)n1-2 (centres undefined) + COc1cc2c(cc1O)CCNC21CSC2c3c(OC(C)=O)c(C)c4c(c3C(COC1=O)N1C(O)C3Cc5cc(C)c(OC)c(O)c5C(C21)N3C)OCO4
Result string: 0.4%

Query string: Name the recorded viability, T/C of the compound listed here: O=C(c1cc(Cc2n[nH]c(=O)c3ccccc23)ccc1F)N1CCN(C(=O)C2CC2)CC1 + COc1cc2c(cc1O)CCNC21CSC2c3c(OC(C)=O)c(C)c4c(c3C(COC1=O)N1C(O)C3Cc5cc(C)c(OC)c(O)c5C(C21)N3C)OCO4
Result string: 84.7%

Query string: Name the recorded viability, T/C of the compound listed here: CNCc1ccc(-c2cc(-c3nc(-c4ccc(S(=O)(=O)C(C)C)cc4)cnc3N)on2)cc1 + COc1cc2c(cc1O)CCNC21CSC2c3c(OC(C)=O)c(C)c4c(c3C(COC1=O)N1C(O)C3Cc5cc(C)c(OC)c(O)c5C(C21)N3C)OCO4
Result string: 0.23%

====

Test system: SYO-1 tumor spheroids, viability % test/control
Assay: Anticancer human tumor SYO-1 cell line growth inhibition; active means viability on the fitted dose curve at most 10% of control; inactive means the rest;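 note: spheroids exposed to agents for 7 days before viability read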
Settings: second compound 10 µM; first compound 10 µM; spheroids with HUVEC and MSC
# valid calls are active, inactive; nothing else

Query string: Entry Cc1cc(C)c(CNC(=O)c2cc(-c3ccc(CN4CCOCC4)cc3)cc3c2cnn3C2CCCC2)c(=O)[nH]1 + Cn1nnc2c(C(N)=O)ncn2c1=O : call = ?
Result string: inactive

Query string: Entry [2H]c1nc(C)nc([2H])c1-c1cc(NC[C@@H](C)c2cccc3c(C(=O)NC)ccnc23)ncn1 + Cn1nnc2c(C(N)=O)ncn2c1=O : call = ?
Result string: inactive

Query string: Entry COc1ccc([C@@H](O)c2cc(-c3ncnc4cc(N5CCOCC5)ccc34)c(F)cc2Cl)nn1 + Cn1nnc2c(C(N)=O)ncn2c1=O : call = ?
Result string: inactive

Query string: Entry CC(C)n1c(=O)n(C)c2cnc3cc(F)c(-c4ccc(OCCCN5CCCCC5)nc4)cc3c21 + Cn1nnc2c(C(N)=O)ncn2c1=O : call = ?
Result string: inactive

Query string: Entry CC1COCCN1c1cc(-c2ccnn2C)c2ccnc(-c3ccn[nH]3)c2n1 (stereo unspecified) + Cn1nnc2c(C(N)=O)ncn2c1=O : call = ?
Result string: active

Query string: Entry COc1cc(C)[nH]c(=O)c1CN1CCc2c(Cl)cc(C(OC)C3COC3)c(Cl)c2C1=O (stereo unspecified) + Cn1nnc2c(C(N)=O)ncn2c1=O : call = ?
Result string: inactive

====

For each record, write down the corresponding viability, T/C.
Test system: SYO-1 tumor spheroids, viability % test/control
Assay: Anticancer human tumor SYO-1 cell line growth inhibition;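 note: spheroids exposed to agents for 7 days before viability read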;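 for viability, T/C: 100% = DMSO vehicle control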
Details: second compound 3.16 µM; first compound 3 µM; stronger effect = lower value; spheroids with HUVEC and MSC
Enter your answer as a number in %; do not include the unit.

Query string: Name the recorded viability, T/C of the compound listed here: Cc1sc2c(c1C)C(c1ccc(Cl)cc1)=NC(CC(=O)Nc1ccc(O)cc1)c1nnc(C)n1-2 (centres undefined) + Cn1nnc2c(C(N)=O)ncn2c1=O
Result string: 0.61

Query string: Name the recorded viability, T/C of the compound listed here: Cn1ncnc1[C@H]1c2n[nH]c(=O)c3cc(F)cc(c23)N[C@@H]1c1ccc(F)cc1 + Cn1nnc2c(C(N)=O)ncn2c1=O
Result string: 1.5

Query string: Name the recorded viability, T/C of the compound listed here: CNCc1ccc(-c2cc(-c3nc(-c4ccc(S(=O)(=O)C(C)C)cc4)cnc3N)on2)cc1 + Cn1nnc2c(C(N)=O)ncn2c1=O
Result string: 0.09

Query string: Name the recorded viability, T/C of the compound listed here: O=C(c1cc(Cc2n[nH]c(=O)c3ccccc23)ccc1F)N1CCN(C(=O)C2CC2)CC1 + Cn1nnc2c(C(N)=O)ncn2c1=O
Result string: 6.01

====

Tested on: SYO-1 tumor spheroids, viability % test/control
Assay: Anticancer human tumor SYO-1 cell line growth inhibition; active = viability on the fitted dose curve at most 10% of control; inactive = the rest;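 note: spheroids exposed to agents for 7 days before viability read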
Settings: second compound 0.00949 µM; first compound 0.1 µM; spheroids with HUVEC and MSC
# valid calls are TRUE = active, FALSE = inactive; nothing else

Query string: Entry Cc1cc(C)c(CNC(=O)c2cc(-c3ccc(CN4CCOCC4)cc3)cc3c2cnn3C2CCCC2)c(=O)[nH]1 + CC[C@@]1(O)C(=O)OCc2c1cc1n(c2=O)Cc2cc3c(CN(C)C)c(O)ccc3nc2-1 : call = ?
Result string: TRUE

Query string: Entry CC1COCCN1c1cc(-c2ccnn2C)c2ccnc(-c3ccn[nH]3)c2n1 (stereo unspecified) + CC[C@@]1(O)C(=O)OCc2c1cc1n(c2=O)Cc2cc3c(CN(C)C)c(O)ccc3nc2-1 : call = ?
Result string: TRUE

Query string: Entry CC(C)n1c(=O)n(C)c2cnc3cc(F)c(-c4ccc(OCCCN5CCCCC5)nc4)cc3c21 + CC[C@@]1(O)C(=O)OCc2c1cc1n(c2=O)Cc2cc3c(CN(C)C)c(O)ccc3nc2-1 : call = ?
Result string: TRUE

Query string: Entry COc1ccc([C@@H](O)c2cc(-c3ncnc4cc(N5CCOCC5)ccc34)c(F)cc2Cl)nn1 + CC[C@@]1(O)C(=O)OCc2c1cc1n(c2=O)Cc2cc3c(CN(C)C)c(O)ccc3nc2-1 : call = ?
Result string: FALSE

Query string: Entry [2H]c1nc(C)nc([2H])c1-c1cc(NC[C@@H](C)c2cccc3c(C(=O)NC)ccnc23)ncn1 + CC[C@@]1(O)C(=O)OCc2c1cc1n(c2=O)Cc2cc3c(CN(C)C)c(O)ccc3nc2-1 : call = ?
Result string: FALSE

Query string: Entry COc1cc(C)[nH]c(=O)c1CN1CCc2c(Cl)cc(C(OC)C3COC3)c(Cl)c2C1=O (stereo unspecified) + CC[C@@]1(O)C(=O)OCc2c1cc1n(c2=O)Cc2cc3c(CN(C)C)c(O)ccc3nc2-1 : call = ?
Result string: FALSE

====

Tested on: SYO-1 tumor spheroids, viability % test/control
Experiment: Anticancer human tumor SYO-1 cell line growth inhibition;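 note: spheroids exposed to agents for 7 days before viability read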;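 for viability, T/C: 100% = DMSO vehicle control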
Details: second compound 3.16 µM; first compound 1 µM; stronger effect = lower value; spheroids with HUVEC and MSC
REPORTED_PROPERTY: viability, T/C (%)
Enter your answer as a number in %; do not include the unit.

Query string: Name the recorded viability, T/C of the compound listed here: COc1ccc([C@@H](O)c2cc(-c3ncnc4cc(N5CCOCC5)ccc34)c(F)cc2Cl)nn1 + Cn1nnc2c(C(N)=O)ncn2c1=O
Result string: 105

Query string: Name the recorded viability, T/C of the compound listed here: Cc1cc(C)c(CNC(=O)c2cc(-c3ccc(CN4CCOCC4)cc3)cc3c2cnn3C2CCCC2)c(=O)[nH]1 + Cn1nnc2c(C(N)=O)ncn2c1=O
Result string: 104

Query string: Name the recorded viability, T/C of the compound listed here: CC1COCCN1c1cc(-c2ccnn2C)c2ccnc(-c3ccn[nH]3)c2n1 (stereo unspecified) + Cn1nnc2c(C(N)=O)ncn2c1=O
Result string: 1.73

Query string: Name the recorded viability, T/C of the compound listed here: CC(C)n1c(=O)n(C)c2cnc3cc(F)c(-c4ccc(OCCCN5CCCCC5)nc4)cc3c21 + Cn1nnc2c(C(N)=O)ncn2c1=O
Result string: 104

Query string: Name the recorded viability, T/C of the compound listed here: [2H]c1nc(C)nc([2H])c1-c1cc(NC[C@@H](C)c2cccc3c(C(=O)NC)ccnc23)ncn1 + Cn1nnc2c(C(N)=O)ncn2c1=O
Result string: 96.5

Query string: Name the recorded viability, T/C of the compound listed here: COc1cc(C)[nH]c(=O)c1CN1CCc2c(Cl)cc(C(OC)C3COC3)c(Cl)c2C1=O (stereo unspecified) + Cn1nnc2c(C(N)=O)ncn2c1=O
Result string: 89.1
